Attribution: the RNAGym collection of RNA variant scans (doi:10.7554/elife.80360)

Each record here notes measured self-cleavage.
B1: Hairpin Ribozyme (parent)
chain: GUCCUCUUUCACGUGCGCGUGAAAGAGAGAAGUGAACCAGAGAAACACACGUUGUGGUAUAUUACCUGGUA

Variants of: B1
Assay: self-cleavage, relative activity (ratio to wild type); higher = more cleavage; co-transcriptional
attributeMeasured: self-cleavage

C4A C6U = 0.143
C10U G17U = 0.665
U2A C3A = 0.401
U63G U67A = 0.159
G27A A35U = 0.261
A23C G51A = 0.83
U9C A41C = 0.837
C12G A30G = 0.247
C4A U7G = 0.221
U9A = 0.691
G25U A28G = 0.971
C18U A61C = 0.17
U20G A39C = 0.461
G34U G51U = 1.04
C16A A24U = 0.632
G56C A64C = 0.104
A45C G56C = 0.312
U9A G69U = 0.245
C50G G56A = 0.226
A39U A44U = 0.102
G21U G25A = 0.252
G15A A47C = 0.302
G1C G51A = 0.343
C6U U9C = 0.369
C6A A71C = 1.14
G17A A30U = 0.0442
U55C C65G = 0.194
G15C G42U = 0.19
A47G G51U = 0.15
G1U C10U = 0.132
A11G A36C = 0.508
